Cited source: the supplement of paper PMC6757056

B1: library; a variant is named by its letters at N, in order (parent)
chain: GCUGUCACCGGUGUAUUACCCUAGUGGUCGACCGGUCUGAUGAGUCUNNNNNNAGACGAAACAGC

Variants of: B1
protocol-summary: normalized RNA/DNA level without ligand (relative to sTRSVctl = 100) (log10 (% of sTRSVctl)); ligand: hypoxanthine (xanthine aptamer); higher = less ribozyme self-cleavage, higher mRNA level
experimental-context: HEK293T, reporter: mCherry (pCS4076), ligand present: no
measured-metric: normalized RNA/DNA level without ligand (log10)

> print(dat)
                                   sequence  value
1  GCUGUCACCGGUGUAUUACCCUAGUGGUCGACCGGUCUGAUGAGUCUUGGCUGAGACGAAACAGC [UGGCUG]   1.95
2  GCUGUCACCGGUGUAUUACCCUAGUGGUCGACCGGUCUGAUGAGUCUUACAUGAGACGAAACAGC [UACAUG]   1.69
3  GCUGUCACCGGUGUAUUACCCUAGUGGUCGACCGGUCUGAUGAGUCUGUCUUCAGACGAAACAGC [GUCUUC]   1.99
4  GCUGUCACCGGUGUAUUACCCUAGUGGUCGACCGGUCUGAUGAGUCUAUCGAUAGACGAAACAGC [AUCGAU]   1.67
5  GCUGUCACCGGUGUAUUACCCUAGUGGUCGACCGGUCUGAUGAGUCUAGUAUGAGACGAAACAGC [AGUAUG]   1.39
6  GCUGUCACCGGUGUAUUACCCUAGUGGUCGACCGGUCUGAUGAGUCUGCGAUGAGACGAAACAGC [GCGAUG]   1.24
7  GCUGUCACCGGUGUAUUACCCUAGUGGUCGACCGGUCUGAUGAGUCUAUAGAUAGACGAAACAGC [AUAGAU]   1.71
8  GCUGUCACCGGUGUAUUACCCUAGUGGUCGACCGGUCUGAUGAGUCUCUUGCCAGACGAAACAGC [CUUGCC]   1.88
9  GCUGUCACCGGUGUAUUACCCUAGUGGUCGACCGGUCUGAUGAGUCUGUGCCGAGACGAAACAGC [GUGCCG]   1.55
